- TARGET: human A2a adenosine receptor (Homo sapiens (Human), UniProt P29274)
- Sequence (P29274 whole entry): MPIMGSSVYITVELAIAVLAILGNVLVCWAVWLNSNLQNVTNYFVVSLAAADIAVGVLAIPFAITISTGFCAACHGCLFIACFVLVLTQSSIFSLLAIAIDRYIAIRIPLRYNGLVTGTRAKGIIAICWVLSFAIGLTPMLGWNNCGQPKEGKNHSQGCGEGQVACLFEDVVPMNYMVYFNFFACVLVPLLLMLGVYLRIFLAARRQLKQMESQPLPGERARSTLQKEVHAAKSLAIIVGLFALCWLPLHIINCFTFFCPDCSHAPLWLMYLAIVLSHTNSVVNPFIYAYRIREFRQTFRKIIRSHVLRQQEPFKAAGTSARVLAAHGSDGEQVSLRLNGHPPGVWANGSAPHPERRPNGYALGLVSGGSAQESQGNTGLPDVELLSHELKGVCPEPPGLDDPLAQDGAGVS
- PROTOCOL_DESCRIPTION: A2a binding affinity using radioligand binding, Method (A)
- MEASUREMENT_CONTEXT: Method (A): [3H]SCH58261 filtration binding
Please note: IC50 exactly at 2 nM is -1. Only values below 2 nM get 1.

Criterion: IC50 strictly below 2 nM. Is it met by Cc1c(-c2ncco2)nc(N)c2nc(Cc3ccc(C(C)(C)O)cn3)nn12 ?
-1

Criterion: IC50 strictly below 2 nM. Is it met by Cc1c(-c2ncco2)nc(N)c2nc(Cc3cccc4c3ncn4CC(F)F)nn12 ?
1

Criterion: IC50 strictly below 2 nM. Is it met by Cc1c(-c2ncco2)nc(N)n2nc(CCN3CCc4c(nnn4C(C)C)C3)nc12 ?
1

Criterion: IC50 strictly below 2 nM. Is it met by Cc1c(-c2ccc(F)cc2)nc(N)n2nc(CCN3CCn4c(cnc4C(C)C)C3)nc12 ?
-1

Criterion: IC50 strictly below 2 nM. Is it met by Cc1c(-c2ncco2)nc(N)n2nc(CCN3CCn4c(cnc4C(C)C)C3)nc12 ?
-1

* * *

- TARGET: human A2a adenosine receptor (Homo sapiens (Human))
- PROTOCOL_DESCRIPTION: A2a binding affinity using radioligand binding, Method (A)
- MEASUREMENT_CONTEXT: Method (A): [3H]SCH58261 filtration binding
- Source text: The A2a receptor affinity binding assay measured the amount of binding of a tritiated ligand with high affinity for the A2a adenosine receptor to membranes made from HEK293 or CHO cells recombinantly expressing the human A2a adenosine receptor, in the presence of varying concentrations of a compound of the invention. The data were generated using either filtration binding or a homogenous scintillation proximity assay (SPA). Method (A): Measurement of A2a Binding Affinity Using Radioligand Binding […]
PARAMETER: pIC50
FYI, pIC50 means -log10 of a concentration in mol per litre.

Query Cc1c(-c2cccc(F)c2)nc(N)c2nc(CCN3CCn4c(cnc4C(C)C)C3)nn12 yields pIC50 of 6.80

Query Cc1c(-c2ccc(OC(F)F)cc2)nc(N)c2nc(Cc3ccccc3)nn12 yields pIC50 of 6.92

Query Cc1c(-c2cccc(F)c2)nc(N)n2nc(CCN3CCn4c(cnc4C(C)C)C3)nc12 yields pIC50 of 7.79

Query Cc1cccnc1Cc1nc2c(N)nc(-c3cc(F)ccc3F)c(C)n2n1 yields pIC50 of 8.00

Query Cc1c(-c2cncc(Cl)c2)nc(N)c2nc(Cc3ccccc3)nn12 yields pIC50 of 7.88

Query Cc1c(-c2ccc(Cl)cc2)nc(N)c2nc(Cc3ccccc3)nn12 yields pIC50 of 7.07

Query Nc1nc(-c2ncco2)cc2nc(CCN3CC(F)(F)C3)nn12 yields pIC50 of 7.04

Query Nc1nc(-c2ncco2)cc2nc(CCN3CCN(CC4CC4)C(=O)C3)nn12 yields pIC50 of 6.91

Query Cn1nc(C(F)(F)F)c2c1CCN(CCc1nc3cc(-c4ncco4)nc(N)n3n1)C2 yields pIC50 of 7.10

Query Nc1nc(-c2cc(F)ccc2F)c(C2CC2)n2nc(Cc3ccccc3)nc12 yields pIC50 of 7.87

Query Cc1c(-c2ncco2)nc(N)n2nc(CCN3CCc4nn(C5CCC5)cc4C3)nc12 yields pIC50 of 8.17

* * *

- TARGET: human A2a adenosine receptor (Homo sapiens (Human), UniProt P29274)
- PROTOCOL_DESCRIPTION: A2a binding affinity using radioligand binding, Method (A)
- MEASUREMENT_CONTEXT: Method (A): [3H]SCH58261 filtration binding
Consider the following compounds; for each one, report its log10 of IC50.
Annotation: log10 of IC50, nM basis.

Query Cc1c(-c2ncco2)nc(N)n2nc(CCN3Cc4cnn(C)c4C3)nc12 yields log10 of IC50 of 1.64

Query Cc1c(-c2cc(F)ccc2Cl)nc(N)c2nc(Cc3ccccc3)nn12 yields log10 of IC50 of 1.99

Query Cc1c(-c2ncco2)nc(N)n2nc(CCc3ccc4c(c3)nnn4C3CC(F)(F)C3)nc12 yields log10 of IC50 of 1.33

Query Cc1c(-c2ncco2)nc(N)c2nc(Cc3cccc(C(C)(C)O)c3)nn12 yields log10 of IC50 of 0.08

Query Cc1cc2n(n1)CCN(CCc1nc3c(C)c(-c4ncco4)nc(N)n3n1)C2 yields log10 of IC50 of 1.21

Query Cc1c(-c2cc(Cl)ccc2F)nc(N)c2nc(Cc3ccccc3)nn12 yields log10 of IC50 of -0.15

Query Cc1c(-c2cc(F)ccc2F)nc(N)c2nc(Cc3cccc4c3ncn4CC(F)F)nn12 yields log10 of IC50 of 1.38

Query Cc1c(-c2cccc(F)c2F)nc(N)c2nc(Cc3ccccc3)nn12 yields log10 of IC50 of 0.60

Query Cc1c(-c2cccc(F)c2Cl)nc(N)c2nc(Cc3ccccc3)nn12 yields log10 of IC50 of 2.46

Query Cc1c(-c2ncco2)nc(N)n2nc(CNCc3ccc(C(C)(C)O)nc3)nc12 yields log10 of IC50 of 0.73

* * *

- TARGET: human A2a adenosine receptor (Homo sapiens (Human), UniProt P29274)
- PROTOCOL_DESCRIPTION: A2a binding affinity using radioligand binding, Method (A)
- MEASUREMENT_CONTEXT: Method (A): [3H]SCH58261 filtration binding
Consider the following compounds; for each one, report its log10 of IC50.
Annotation: log10 of IC50, nM basis.

log10 of IC50 on human A2a adenosine receptor (Homo sapiens (Human), UniProt P29274) for COc1cc(F)cc(-c2nc(N)c3nc(Cc4ccccc4)nn3c2C)c1 is 0.79

log10 of IC50 on human A2a adenosine receptor (Homo sapiens (Human), UniProt P29274) for COc1ccc(-c2nc(N)c3nc(Cc4ccccc4)nn3c2C)c(F)c1 is 1.61

log10 of IC50 on human A2a adenosine receptor (Homo sapiens (Human), UniProt P29274) for Cc1c(-c2ncco2)nc(N)c2nc(Cc3cccc4c3ncn4CC(C)(C)O)nn12 is -0.70

log10 of IC50 on human A2a adenosine receptor (Homo sapiens (Human), UniProt P29274) for COc1ncc(-c2nc(N)c3nc(Cc4ccccc4)nn3c2C)cc1F is 1.60

log10 of IC50 on human A2a adenosine receptor (Homo sapiens (Human), UniProt P29274) for Cc1c(-c2cc(F)cc(Cl)c2)nc(N)c2nc(Cc3ccccc3)nn12 is 0.46

log10 of IC50 on human A2a adenosine receptor (Homo sapiens (Human), UniProt P29274) for Cc1c(-c2cccc(Cl)c2F)nc(N)c2nc(Cc3ccccc3)nn12 is 0.88

log10 of IC50 on human A2a adenosine receptor (Homo sapiens (Human), UniProt P29274) for Cc1c(-c2cc(F)cc(F)c2)nc(N)c2nc(Cc3ccccc3)nn12 is 0.20

log10 of IC50 on human A2a adenosine receptor (Homo sapiens (Human), UniProt P29274) for Cc1c(-c2cncc(F)c2)nc(N)c2nc(Cc3ccccc3)nn12 is 1.39

log10 of IC50 on human A2a adenosine receptor (Homo sapiens (Human), UniProt P29274) for Cc1c(-c2ncco2)nc(N)n2nc(CCN3CCn4c(cnc4C4CCCC4)C3)nc12 is 0.62

log10 of IC50 on human A2a adenosine receptor (Homo sapiens (Human), UniProt P29274) for Cc1c(-c2ncco2)nc(N)c2nc(Cc3ccccc3)nn12 is -0.30

log10 of IC50 on human A2a adenosine receptor (Homo sapiens (Human), UniProt P29274) for Cc1c(-c2cccc(F)c2)nc(N)n2nc(CCN3CCc4c(nnn4C(C)C)C3)nc12 is 0.36

log10 of IC50 on human A2a adenosine receptor (Homo sapiens (Human), UniProt P29274) for Cc1cc(-c2nc(N)c3nc(Cc4ccccc4)nn3c2C)ccn1 is 1.74

log10 of IC50 on human A2a adenosine receptor (Homo sapiens (Human), UniProt P29274) for Cc1c(-c2ncco2)nc(N)n2nc(CCN3CCc4nn(C5CCCC5)cc4C3)nc12 is 0.11

log10 of IC50 on human A2a adenosine receptor (Homo sapiens (Human), UniProt P29274) for Cc1ccc(F)cc1-c1nc(N)c2nc(Cc3ccccc3)nn2c1C is 1.82

log10 of IC50 on human A2a adenosine receptor (Homo sapiens (Human), UniProt P29274) for Cc1c(-c2ccc(F)cc2)nc(N)c2nc(Cc3ccccc3)nn12 is 1.60

log10 of IC50 on human A2a adenosine receptor (Homo sapiens (Human), UniProt P29274) for Cc1c(-c2ncco2)nc(N)n2nc(CCN3CCc4c(nnn4C45CC(C4)C5)C3)nc12 is 0.34

log10 of IC50 on human A2a adenosine receptor (Homo sapiens (Human), UniProt P29274) for Cc1c(-c2cc(C(F)(F)F)nn2C)nc(N)c2nc(Cc3ccccc3)nn12 is 1.25

log10 of IC50 on human A2a adenosine receptor (Homo sapiens (Human), UniProt P29274) for Cc1c(-c2cc(F)cc(F)c2F)nc(N)c2nc(Cc3ccccc3)nn12 is 0.40

log10 of IC50 on human A2a adenosine receptor (Homo sapiens (Human), UniProt P29274) for Cc1nc2c(o1)CN(CCc1nc3c(C)c(-c4cnco4)nc(N)n3n1)C2 is 1.43

log10 of IC50 on human A2a adenosine receptor (Homo sapiens (Human), UniProt P29274) for Cc1c(-c2ccc(C#N)c(F)c2)nc(N)c2nc(Cc3ccccc3)nn12 is 2.70
